- Tested on: E. coli humanized H38 RFP strain growth, mixed culture, 24 h
- ASSAY_COMMENT: E. coli growth inhibition, wild-type GFP versus H38 humanized RFP strain – H38 mutant RFP vs wild-type GFP, cherry-pick, dose response (AID 977630);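 further: wild-type GFP strain mixed equally with humanized-ribosome H38 mutant expressing RFP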
Inconclusive results are not listed.
Assignment: determine reported AC50 for the given molecules.
Numeric answer only, unit µM assumed.

Report measured AC50; entry is CC(C)(C)c1ccc(S(=O)(=O)NCc2ccc(C(=O)NCc3ccccn3)cc2)cc1 49.9

Report measured AC50; entry is CCOC(=O)[C@]12Cc3ccccc3[C@H]1N(C)C(=O)c1cc(OC)ccc12 48.7

Report measured AC50; entry is O=C1NC(CCc2ccccc2)C(=O)N1Cc1cccc2ccccc12 (stereo not drawn) 50.1

Report measured AC50; entry is COc1cc(NC(=O)C(c2ccccc2)c2ccccc2)c(C(=O)O)cc1OC 22.3

Report measured AC50; entry is O=C1c2ccccc2NC(c2ccc(-c3cccc([N+](=O)[O-])c3)o2)N1O (stereo not drawn) 7.43

Report measured AC50; entry is CC(C)C[C@H]1COc2cc(Br)ccc2S(=O)(=O)N1 47

Report measured AC50; entry is O=C(Nc1ccccc1N1CCOCC1)C1CCCCN1S(=O)(=O)c1ccccc1 (stereo not drawn) 49.8

Report measured AC50; entry is CCOC(=O)c1csc(NC(=O)CC2CCCC2)n1 51.7

Report measured AC50; entry is COc1ccc(OC2C(=O)N(Cc3ccc4c(c3)OCO4)C2c2cccs2)cc1 (stereo not drawn) 11.5

Report measured AC50; entry is CCn1cc(Br)c(C(=O)Nc2ccc(C(=O)OC(C)C)cc2)n1 52

====

- Tested on: E. coli humanized H38 RFP strain growth, mixed culture, 24 h
- ASSAY_COMMENT: E. coli growth inhibition, wild-type GFP versus H38 humanized RFP strain – H38 mutant RFP vs wild-type GFP, cherry-pick, dose response (AID 977630);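 further: wild-type GFP strain mixed equally with humanized-ribosome H38 mutant expressing RFP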
Records with an inconclusive call do not appear.
Assignment: determine reported AC50 for the given compounds.

Write down measured AC50 (E. coli humanized H38 RFP strain growth, mixed culture, 24 h) for this compound. CC(C)(C)S(=O)(=O)Cc1nc(-c2ccc(Cl)c(Cl)c2)cs1 > 100 µM

Write down measured AC50 (E. coli humanized H38 RFP strain growth, mixed culture, 24 h) for this compound. CS(=O)(=O)N1CC2CCCN2c2ccc(C(F)(F)F)cc21 (stereo not drawn) > 100 µM

Write down measured AC50 (E. coli humanized H38 RFP strain growth, mixed culture, 24 h) for this compound. Nc1nc(=S)ss1 < 0.6 µM

Write down measured AC50 (E. coli humanized H38 RFP strain growth, mixed culture, 24 h) for this compound. CN(c1ccc(C(=O)NCc2cccs2)cc1)S(=O)(=O)c1ccccc1 > 100 µM

Write down measured AC50 (E. coli humanized H38 RFP strain growth, mixed culture, 24 h) for this compound. O=C(CCCSc1nc2ccccc2s1)NCc1ccc2c(c1)OCO2 > 100 µM

Write down measured AC50 (E. coli humanized H38 RFP strain growth, mixed culture, 24 h) for this compound. Cc1ccccc1NS(=O)(=O)c1cc(C(=O)NCCC2=CCCCC2)ccc1C > 100 µM

Write down measured AC50 (E. coli humanized H38 RFP strain growth, mixed culture, 24 h) for this compound. Cc1ccc([N+](=O)[O-])c(OCCn2cnc3ccccc32)c1 > 100 µM

Write down measured AC50 (E. coli humanized H38 RFP strain growth, mixed culture, 24 h) for this compound. Nc1ncncc1-c1ccc2ccccc2c1 > 100 µM

Write down measured AC50 (E. coli humanized H38 RFP strain growth, mixed culture, 24 h) for this compound. O=C(NCc1ccccc1)c1ccc(-c2cn[nH]c2)c2ccoc12 > 100 µM

Write down measured AC50 (E. coli humanized H38 RFP strain growth, mixed culture, 24 h) for this compound. COc1ccc(-c2nn(-c3ccccc3C)cc2CNCc2cccnc2)cc1F > 100 µM

Write down measured AC50 (E. coli humanized H38 RFP strain growth, mixed culture, 24 h) for this compound. CS(=O)(=O)c1ccc(Cl)c(NC(=O)COC(=O)c2c(Cl)cccc2Cl)c1 > 100 µM

Write down measured AC50 (E. coli humanized H38 RFP strain growth, mixed culture, 24 h) for this compound. Nc1nc2ccccc2n1CCOc1ccc(F)cc1 < 0.6 µM

Write down measured AC50 (E. coli humanized H38 RFP strain growth, mixed culture, 24 h) for this compound. CCc1cc2ccc(OC)cc2nc1SCC(=O)N1CCN(C(=O)c2ccco2)CC1 > 100 µM
